Listed here are molecules together with their documented solubility kinetic.
Conditions: buffer; pH 7.4; 200.0 µM

S=C(NCCc1ccccc1)NCCc1cnc[nH]1 ... > 41.2 µg/mL

Asked: Any idea what its solubility kinetic is? The molecule is COCC(C)NC(=O)COc1nncc2ccccc12 (stereo not drawn)
Given back: > 41.3 µg/mL

Asked: Data request, read-out solubility kinetic, for COc1cccc(N2C(=O)CC(Sc3nc(C)cc(C)n3)C2=O)c1 (stereo not drawn)
Given back: > 51.5 µg/mL

---

Settings: buffer; pH 7.4; 200.0 µM
solubility kinetic listing for selected molecules.

CCOc1ccccc1C(=O)NCC(=O)O ... > 33.5 µg/mL
O=C(NC1CCCC1)C1CCN(c2cnccn2)CC1 ... > 41.2 µg/mL
CCC(C)c1ccc(S(=O)(=O)N2CCN(c3ccccn3)CC2)cc1 (stereo not drawn) ... < 0.3 µg/mL
Cc1cccc(C)c1OCC(O)CN1CCc2ccccc2C1.Cl (stereo not drawn) ... > 52.2 µg/mL
CC1(C)CN(C(Cc2ccccc2)C(N)=O)C1=O (stereo not drawn) ... > 36.9 µg/mL

Asked: Which solubility kinetic is listed for O=c1[nH]c2cc(NCCO)c([N+](=O)[O-])cc2[nH]1 ?
Given back: > 35.7 µg/mL

Asked: Tell me the measured solubility kinetic of CC(C)=CCN1CCN(Cc2c[nH]c3ccccc23)CC1CCO (stereo not drawn) , please.
Given back: > 49.1 µg/mL

Asked: Recorded solubility kinetic for CN(C)c1ccc(NC(=O)C[n+]2ccccc2)cc1.[Cl-] , please?
Given back: > 43.8 µg/mL

Asked: Fill in: solubility kinetic of Cc1ccc(C(=O)NCCCNC(=O)c2ccccn2)cc1 is ___
Given back: > 44.6 µg/mL

Asked: Looking for the measured solubility kinetic of CC(=O)Nc1ccc(C(=O)COC(=O)C2CC2C)c(F)c1 (stereo not drawn) , can you help?
Given back: > 44 µg/mL

Asked: Returns the measured solubility kinetic for the input molecule. Input: O=[N+]([O-])c1ccc(C(O)C(CO)NC(=S)Nc2ccccc2)cc1 (stereo not drawn)
Given back: > 52.1 µg/mL

Asked: Fill blank: measured solubility kinetic of the molecule Cc1ccc(NC(=O)Nc2cccnc2)cc1 is ____.
Given back: > 34.1 µg/mL

Asked: Name the reported solubility kinetic value associated with the molecule COC(=O)CC(c1ccc(C#N)cc1)n1c(C)ccc1C (stereo not drawn)
Given back: > 42.4 µg/mL

---

Conditions: buffer; pH 7.4; 200.0 µM
solubility kinetic for assorted compounds
I only need the number, in µg/mL, no unit after it.

Asked: Reported solubility kinetic for COc1ccccc1C(=O)c1nc2ccccc2n1C : what is it?
Given back: 19.7

Asked: Any idea what its solubility kinetic is? The compound is NC(=O)COC(=O)c1c2c(nc3ccccc13)CCCC2
Given back: 39.4

Asked: What value of solubility kinetic has been recorded for this entry: Cc1cccc(C)c1NC(=O)C1C2C=CC(C2)C1C(=O)O (stereo unspecified)
Given back: 39.7

Asked: I would be grateful if you could share the reported solubility kinetic for C=CCON/C(CCC)=C1\C(=O)C(C(=O)OC)C(C)(C)CC1=NC (stereo unspecified) .
Given back: 40.4

---

Conditions: buffer; pH 7.4; 200.0 µM
Each entry below lists one item and its recorded solubility kinetic value.

CC(C)NC(=NCc1ccc(Cl)cc1Cl)Nc1ccccc1 ... > 50.4 µg/mL

Okay, now this molecule:
Asked: So what does the record say about solubility kinetic for O=C(NCCCCNC(=O)C(F)(F)F)C(F)(F)F ?
Given back: > 42 µg/mL

---

Conditions: buffer; pH 7.4; 200.0 µM
Examples of compounds with documented solubility kinetic follow.

Cc1ccc(F)cc1NC(=O)c1ccc(OCC2CCCO2)cc1 (configuration not stated) ... > 49.4 µg/mL
O=C(O)C1CCCN1C(=O)OCC1c2ccccc2-c2ccccc21 (configuration not stated) ... > 50.6 µg/mL
O=C(/C=C/c1cccc2ccccc12)N1CCOCC1 ... > 40.1 µg/mL

Asked: Given the compound N#CC1(c2ccccc2)CCC(=O)N1c1ccccc1 (configuration not stated) , what is its reported solubility kinetic?
Given back: > 39.3 µg/mL

Asked: // query solubility kinetic value for entry COC(=O)c1sccc1NC(=O)c1cccc(Cl)c1
Given back: < 0.6 µg/mL

Asked: So what's the measured solubility kinetic for this one? NS(=O)(=O)c1ccc(CCNC(=O)c2cnccn2)cc1
Given back: > 46 µg/mL

Asked: Entry Cn1c(=O)n(C)c2cc(S(=O)(=O)N3CCCCC3)ccc21 : reported solubility kinetic = ?
Given back: > 46.4 µg/mL

Asked: // solubility kinetic lookup, key: CCOc1ccc(NC(=S)NC23CC4CC(CC(C4)C2)C3)cc1
Given back: < 0.4 µg/mL

Asked: Consider the compound shown here: CCCc1c(C)nn(-c2ncccc2[N+](=O)[O-])c1C What is its recorded solubility kinetic?
Given back: > 39 µg/mL

---

Details: buffer; pH 7.4; 200.0 µM
Readout: solubility kinetic

// known answers, use as guide
Cc1ccc(OC(F)F)c(N2C(=O)C3C4CCC(O4)C3C2=O)c1 (configuration not stated) ... > 48.5 µg/mL
Cc1cc(OCC(=O)N2CCOCC2)ccc1[N+](=O)[O-] ... > 42 µg/mL
Cc1ccc(NC(=O)C(C)OC(=O)CSc2ccccc2)cc1 (configuration not stated) ... > 49.4 µg/mL
COCCNc1nc(-c2ccccc2)nc2ccccc12.Cl ... > 47.4 µg/mL
COc1ccc(-c2ccc(C(=O)O)c(=O)[nH]2)cc1 ... > 36.8 µg/mL
Cc1ccc(C2Nc3ccccc3C(=O)N2CCN2CCNC2=O)cc1 (configuration not stated) ... > 52.6 µg/mL
COc1ccc([N+](=O)[O-])cc1N1C(=O)c2cccnc2C1=O ... > 44.9 µg/mL
CN1C(=O)NC(=O)/C(=C/c2ccc([N+](=O)[O-])o2)C1=O ... > 39.8 µg/mL

Now consider the entry below.
Asked: May I ask what solubility kinetic has been recorded for CCN(CC)c1ccc(NC(=O)c2c(C)noc2C)cc1 ?
Given back: > 43.1 µg/mL

---

solubility kinetic: recorded values
Settings: buffer; pH 7.4; 200.0 µM

Solved entries:
N#Cc1ccc(C(=O)OCC(=O)N2CCCCCC2)cc1 ... > 0.0429 mg/mL
Clc1ccc(-c2ccnc(-n3cccc3)n2)s1 ... < 0.0002 mg/mL
O=C(Cc1ccsc1)NCc1ccccc1F ... > 0.0374 mg/mL
CN1CCN(S(=O)(=O)c2cccc3nsnc23)CC1 ... > 0.0448 mg/mL
O=C(N/N=C/c1ccoc1)c1ccc(Cl)cc1Cl ... > 0.0425 mg/mL
Cc1csc(SCC(=O)Nc2ccc3[nH]c(=O)[nH]c3c2)n1 ... > 0.0481 mg/mL
Cc1ccc(O)c(CNc2nc3ccccc3[nH]2)c1 ... > 0.038 mg/mL
N=C(N)c1ccccc1 ... > 0.018 mg/mL
CC(C)NC(=O)[C@H]1N2C(=O)c3ccccc3C2SC1(C)C (stereo partly specified) ... > 0.0457 mg/mL
CCCC(C)NC(=O)CSc1nc2ccc(C)cc2[nH]1 (stereo unspecified) ... > 0.0437 mg/mL

Asked: // returns reported solubility kinetic for input COc1ccc(Nc2ncnc3c2c(C)c(C)n3CCO)cc1
Given back: > 0.0469 mg/mL

Asked: Given the compound CC(C)c1ccc(C(CC(=O)O)N2Cc3ccccc3C2=O)cc1 (stereo unspecified) , what is its reported solubility kinetic?
Given back: > 0.0485 mg/mL

Asked: // solubility kinetic lookup, key: O=C(CN1C(=O)COc2ccccc21)N1CCCC1
Given back: > 0.039 mg/mL

---

Known solubility kinetic of a selection of molecules
Conditions: buffer; pH 7.4; 200.0 µM

Consider the worked cases shown below.
Cc1cc(NC(=O)c2cccnc2)ccc1Br ... 40.2 µg/mL
Nc1ccn([C@H]2C[C@H](O)[C@@H](CO)O2)c(=O)n1.O ... > 36.8 µg/mL
Cn1c(=O)cc(N)n(-c2ccccc2)c1=O ... > 32.6 µg/mL

Would you kindly look at the next entry?
Asked: Fill blank: measured solubility kinetic of the molecule CC1CC(C)(C)Nc2ccc(N=O)cc21 (centres undefined) is ____.
Given back: > 30.6 µg/mL

---

Conditions: buffer; pH 7.4; 200.0 µM
Readout: solubility kinetic

COCc1cc(=O)[nH]c(SCC(=O)N2CCOCC2)n1 ... > 44.9 µg/mL
O=S(=O)(NCCN1CCCC1)c1ccc(C(F)(F)F)cc1 ... > 48.4 µg/mL
Cn1cc(C(=O)N2CCCCC2)c2ccccc21 ... > 36.3 µg/mL
Cc1ccc(C(=O)N2CCN(C)CC2)cc1[N+](=O)[O-] ... > 39.5 µg/mL
CCN(CC(=O)Nc1ccc2c(c1)OCCO2)C(=O)c1ccc(CS(C)(=O)=O)cc1 ... > 64.9 µg/mL

Switching to the query record.
Asked: Requested read-out: solubility kinetic. Entry: CCCCCc1nnc(NC(=O)c2ccc(=O)n(C)n2)s1
Given back: > 46.1 µg/mL
